protocol details: qHTS assay to identify aromatase inhibitors - cell viability counter screen (AID 743084);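 also: cells stimulated with testosterone during compound exposure; % is scaled to controls: 0 for no effect and ±100 for the full control effect; nearly all actives have a fitted effect of over 55% in size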
setup conditions: MCF-7 aro ERE viability, CellTiter-Fluor, 24 h; series mostly up to 70.3 µM
Records with an inconclusive call do not appear. The source made the active and inactive calls. Calls follow the shape of the dose curve; as a rule, active = well fitted cell-killing curve with a large enough effect in the repeat runs; inconclusive = weak or mixed curves, or effect the other way; inactive = no such curve, though single readings can be large or run the other way.
// one of Y = active, N = inactive, no free text

A selection of reference data follows.
INSERT INTO measurements (compound, class_name) VALUES
  ('Nc1nc(-c2ccccc2)cs1', 'N'),
  ('CC(=O)[C@H]1CC[C@H]2[C@@H]3CCC4=CC(=O)CC[C@]4(C)[C@H]3CC[C@]12C', 'N'),
  ('O=C1CCCCCCCCCCCCCCCO1', 'N'),
  ('CCCC(=O)OCCc1ccccc1', 'N'),
  ('Cc1c(F)c(N2CCNC(C)C2)cc2c1c(=O)c(C(=O)O)cn2C1CC1 (configuration not stated)', 'N');

Qu. Dear all, I need the recorded test outcome for "COc1ccc(NC(=O)CC(C)=O)cc1" , thank you.
Ans. N

Qu. Dear all, I need the recorded test outcome for CCOC(=O)NNc1ccc(N(CC)CC(C)O)nn1 (configuration not stated) , thank you.
Ans. N

Qu. Dear all, I need the recorded test outcome for "O=[N+]([O-])c1cccc(C(F)(F)F)c1" , thank you.
Ans. N

Qu. Dear all, I need the recorded test outcome for "CCCCCCCC/C=C\CCCCCCCCN" , thank you.
Ans. N

* * *

protocol details: qHTS assay for small molecule agonists of the p53 signaling pathway (AID 651631); also: nearly all actives have a fitted effect of over 15% in size
setup conditions: HCT-116 p53RE-bla reporter, beta-lactamase FRET ratio, 16 h; series mostly up to 73.3 µM
Inconclusive results are not listed. Active and inactive are the calls of the source. Calls follow the shape of the full dose curve.
// one of 1.0 = active, 0.0 = inactive, no free text

A selection of reference data follows.
INSERT INTO assay_data (molecule, class_name) VALUES
  ('Cc1nc2n(c(=O)c1CCN1CCC(c3noc4cc(F)ccc34)CC1)CCCC2', 0.0),
  ('CCCC(=O)OC(C)(C)Cc1ccccc1', 0.0),
  ('CNC(=O)c1ccccc1Sc1ccc2c(/C=C/c3ccccn3)n[nH]c2c1', 1.0),
  ('C#C[C@]1(OC(C)=O)CC[C@H]2[C@@H]3CCC4=C/C(=N/O)CC[C@@H]4[C@H]3CC[C@@]21CC', 1.0);

Qu. Dear all, I need the recorded test outcome for "O=[N+]([O-])c1ccc(O)cc1C(F)(F)F" , thank you.
Ans. 1.0

Qu. Dear all, I need the recorded test outcome for CN1CCCCC1CCN1c2ccccc2Sc2ccc(S(C)=O)cc21 (stereo unspecified) , thank you.
Ans. 0.0

Qu. Dear all, I need the recorded test outcome for "O=C(/C=C/c1ccccc1)OC/C=C/c1ccccc1" , thank you.
Ans. 0.0

* * *

protocol details: qHTS assay to identify small molecule agonists of the endoplasmic reticulum stress response signaling pathway (AID 1159516); also: % is scaled to controls: 0 for no effect and ±100 for the full control effect
setup conditions: ESRE-bla HeLa, ER stress beta-lactamase reporter, 5 h; series mostly up to 61 µM
Inconclusive results are not listed. The source made the active and inactive calls. Calls come from the whole dose curve; as a rule, active = well fitted activation curve with a large enough effect in the signal ratio in the repeat runs (not every such curve was filed as active); inconclusive = weak or mixed curves, or effect the other way; inactive = flat fitted curve, though single readings scatter; the % refers to the signal ratio.
// one of yes (active), no (inactive), no free text

A selection of reference data follows.
INSERT INTO results (compound, class_name) VALUES
  ('CC(C)(C)C1CCC(=O)CC1', 'no'),
  ('COc1cc(/C=C/c2ccccc2)oc(=O)c1', 'no'),
  ('CCN(CC)C(=O)c1cc(S(=O)(=O)Cc2ccccc2)c(N2CCC(c3ccccc3)CC2)cc1N(CC)CCN(C)C', 'no');

Qu. Dear all, I need the recorded test outcome for "C=C(C)C(=O)OCCCCCCCCCC" , thank you.
Ans. no

Qu. Dear all, I need the recorded test outcome for "Cc1ccc(C)cc1" , thank you.
Ans. no

Qu. Dear all, I need the recorded test outcome for "C=Cc1cccc(C)c1" , thank you.
Ans. no

Qu. Dear all, I need the recorded test outcome for CCCCCC(C)OC(=O)COc1ccc(Cl)c2cccnc12 (stereo unspecified) , thank you.
Ans. no

Qu. Dear all, I need the recorded test outcome for "CC(C)Cn1cnc2c(N)nc3ccccc3c21" , thank you.
Ans. no

Qu. Dear all, I need the recorded test outcome for "OCC(F)(F)F" , thank you.
Ans. no

Qu. Dear all, I need the recorded test outcome for "CN1CCC[C@@H]1CCO[C@](C)(c1ccccc1)c1ccc(Cl)cc1" , thank you.
Ans. no

Qu. Dear all, I need the recorded test outcome for CCCCN(CCCC)CC(O)c1cc(Cl)cc2c1-c1ccc(Cl)cc1/C2=C/c1ccc(Cl)cc1 (stereo unspecified) , thank you.
Ans. no

Qu. Dear all, I need the recorded test outcome for "C#C[C@]1(OC(C)=O)CC[C@H]2[C@@H]3CCC4=C/C(=N/O)CC[C@@H]4[C@H]3CC[C@@]21CC" , thank you.
Ans. no

Qu. Dear all, I need the recorded test outcome for "CCCCOC(=O)CO" , thank you.
Ans. no

Qu. Dear all, I need the recorded test outcome for "CCCC(=O)OCCc1ccccc1" , thank you.
Ans. no

Qu. Dear all, I need the recorded test outcome for "Nc1nc(-c2ccccc2)cs1" , thank you.
Ans. no

Qu. Dear all, I need the recorded test outcome for "Clc1nnc(Cl)c2ccccc12" , thank you.
Ans. no
